Source: patent US20180334496A1

target: T1, serum purified human Complement Factor D (human, UniProt P00746 26-253); assay: SPR Biacore, antibody on protein A chip, single cycle kinetics, 37 C;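 further: antibodies captured on the protein A surface to roughly 70 RU in HBS-EP+ buffer, with rate and affinity constants fitted using BIAevaluation software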
T1 construct: Serum purified protein flowed over the captured antibodies; also called CFD; human CFD
T1 sequence (P00746 26-253): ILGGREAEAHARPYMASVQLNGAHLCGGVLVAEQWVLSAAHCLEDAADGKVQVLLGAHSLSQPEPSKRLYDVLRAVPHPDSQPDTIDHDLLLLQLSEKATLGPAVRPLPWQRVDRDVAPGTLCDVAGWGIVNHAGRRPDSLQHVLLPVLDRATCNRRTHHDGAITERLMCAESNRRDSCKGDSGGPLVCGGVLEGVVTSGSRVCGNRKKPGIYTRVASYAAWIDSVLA
ASSAY_METRIC: koff (s⁻¹)
Supply the numeric figure in s⁻¹, leaving out any unit text.

# annotated cases, reported koff shown
54I59D84T / 32W60W101V (antibody, V domains shown, KCD119 TAF variant; full antibody captured on protein A) VH: EVQLVESGGGLVQPGGSLRLSCAASGYTFTDYYMNWVRQAPGKGLEWIGDINPITGDTDYNADFKRRFTFSLDTSKSTAYLQMTSLRAEDTAVYYCTREGPSFAYWGQGTLVTVSS VL: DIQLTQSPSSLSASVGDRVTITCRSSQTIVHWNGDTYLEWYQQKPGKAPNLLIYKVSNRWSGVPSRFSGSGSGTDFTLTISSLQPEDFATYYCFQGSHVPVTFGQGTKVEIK    0.000365
31S54V59D / 32W60W101V (antibody, V domains shown, KCD119 TAF variant; full antibody captured on protein A) VH: EVQLVESGGGLVQPGGSLRLSCAASGYTFTSYYMNWVRQAPGKGLEWIGDINPVTGDTDYNADFKRRFTFSLDTSKSTAYLQMNSLRAEDTAVYYCTREGPSFAYWGQGTLVTVSS VL: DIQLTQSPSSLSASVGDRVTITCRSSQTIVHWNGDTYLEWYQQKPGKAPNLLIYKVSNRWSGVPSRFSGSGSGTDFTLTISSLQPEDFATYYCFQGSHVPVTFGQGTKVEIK    0.000293

Switching to the query record.
Problem: Item under review: 31S54V59D / 101V (antibody, V domains shown, KCD119 TAF variant; full antibody captured on protein A) VH: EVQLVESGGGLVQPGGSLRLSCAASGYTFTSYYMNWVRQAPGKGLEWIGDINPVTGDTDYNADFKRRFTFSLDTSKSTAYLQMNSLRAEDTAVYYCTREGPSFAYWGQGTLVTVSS VL: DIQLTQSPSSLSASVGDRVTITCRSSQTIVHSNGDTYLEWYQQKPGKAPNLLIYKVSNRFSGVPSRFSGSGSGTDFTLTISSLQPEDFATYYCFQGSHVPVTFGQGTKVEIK . Reported koff?
Result: 0.000373
